Kindly state phenotypic distance for each of the entries shown.
System: E28 (patient-derived glioblastoma stem cells of classical subtype);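 further: cell Painting imaging in 384-well plates, CellProfiler features reduced to at least 20 principal components, Euclidean distance versus same-plate DMSO vehicle wells (0.1% v/v), median over six images per well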
ASSAY_PROCEDURE: phenotypic distance (Euclidean, principal components) from DMSO controls (arbitrary units); higher = stronger morphological change
CONDITIONS_USED: 3000 nM; exposure time: 72 h
Numbers only.

Some solved entries appear below for comparison.
[[record]]
compound = "CN(C)C(=O)Oc1ccc[n+](C)c1 [Pyridostigmine iodide]"
quantity = "phenotypic distance"
value_measured = 0.684

[[record]]
compound = "COc1ccc2[nH]c([S+]([O-])Cc3ncc(C)c(OC)c3C)nc2c1 (centres undefined)"
quantity = "phenotypic distance"
value_measured = 0.723

[[record]]
compound = "Clc1ccc(CSC(Cn2ccnc2)c2ccc(Cl)cc2Cl)cc1 (centres undefined) [Sulconazole nitrate]"
quantity = "phenotypic distance"
value_measured = 0.697


Continue with the compound presented below.
Enquiry: Short answer please: phenotypic distance, E28, entry CC1(C)S[C@@H]2[C@H](NC(=O)Cc3ccccc3)C(=O)N2[C@H]1C(=O)O [Benzylpenicillin sodium]
Return: 1.19

---

Tested on: E57 (patient-derived glioblastoma stem cells of mesenchymal subtype)
ASSAY_PROCEDURE: surviving fraction (nuclei count normalised to DMSO); higher = more cells surviving (less toxic)
CONDITIONS_USED: 333.3 nM; exposure time: 72 h
Structures can show the parent of a compound that is named as a salt.
Class membership depends on surviving fraction alone; the intervals are bucket A: < 0.6; bucket B: ≥ 0.6 and < 1; bucket C: ≥ 1

[[record]]
compound = "NC(=O)c1cccc2cn(-c3ccc([C@@H]4CCCNC4)cc3)nc12"
discrete_label = "bucket B"

[[record]]
compound = "CC[C@H]1CN2CCc3cc(OC)c(OC)cc3[C@@H]2C[C@@H]1C[C@H]1NCCc2cc(OC)c(OC)cc21 [Emetine dihydrochloride hydrate]"
discrete_label = "bucket A"

[[record]]
compound = "Cc1ccc2c(c1)C1(CCN(CCc3nc(-c4ccccc4)oc3C)CC1)OC(=O)N2"
discrete_label = "bucket C"


Enquiry: Which bin, given its surviving fraction, does `Nc1ncnc2c1c(-c1ccc(Oc3ccccc3)cc1)cn2C1CCCC1` occupy?
Return: bucket C

Enquiry: Next compound: CC[C@@]1(O)C(=O)OCc2c1cc1n(c2=O)Cc2cc3cc(O)ccc3nc2-1 [Hydroxy Camptothecine]
Return: bucket A

Enquiry: Next compound: `COC(=O)Nc1nc2cc(C(=O)c3ccccc3)ccc2[nH]1`
Return: bucket A

Enquiry: Next compound: `Cc1cc(CN2CCN(c3c(Br)cnc4nc(-c5ccc(N6CCN(C)CC6)cc5)[nH]c34)CC2)no1`
Return: bucket B

Enquiry: Next compound: `O=C1CCc2cc(OCCCCc3nnnn3C3CCCCC3)ccc2N1`
Return: bucket B

Enquiry: Next compound: `CC(C)C[C@H](NC(=O)[C@H](Cc1ccccc1)C[C@@H](O)[C@H](Cc1ccccc1)NC(=O)OC(C)(C)C)C(=O)N[C@@H](Cc1ccccc1)C(N)=O`
Return: bucket C

Enquiry: Next compound: `CC[n+]1c(/C=C/C=C2/N(C)c3ccccc3C2(C)C)sc2ccccc21`
Return: bucket A

---

Kindly state surviving fraction for each of the entries shown.
Test system: FT3469 (normal neural stem cell line)
ASSAY_PROCEDURE: surviving fraction (nuclei count normalised to DMSO); higher = more cells surviving (less toxic)
CONDITIONS_USED: 3000 nM; exposure time: 72 h
Where a name gives a salt, the structure may show the parent alone.
Give bare numbers.

Some solved entries appear below for comparison.
[[record]]
compound = "O=C(CCBr)N1CCN(C(=O)CCBr)CC1 [Pipobroman]"
quantity = "surviving fraction"
value_measured = 0.86

[[record]]
compound = "CN1CCC(NC(=O)c2cc(-c3c(O)cc(O)cc3Oc3ccc([N+](=O)[O-])cc3)on2)CC1 [NMS-E973]"
quantity = "surviving fraction"
value_measured = 0.4

[[record]]
compound = "Clc1ccc(CSC(Cn2ccnc2)c2ccc(Cl)cc2Cl)cc1 (configuration not stated) [Sulconazole nitrate]"
quantity = "surviving fraction"
value_measured = 0.734


Give one value of surviving fraction per listed compound.
1. COC(=O)[C@@H]1[C@H]2C[C@H]3c4[nH]c5ccccc5c4CCN3C[C@@H]2CC[C@@H]1O [Yohimbine hydrochloride]
2. CC(C)C[C@@H](C(=O)N[C@H](C(=O)OC1CCCC1)c1ccccc1)[C@H](O)C(=O)NO [Tosedostat]
3. CCn1cc(C(=O)O)c(=O)c2cc(F)c(N3CCNCC3)nc21 [Enoxacin]
4. OCCN1CCN(CCCN2c3ccccc3Sc3ccc(C(F)(F)F)cc32)CC1 [Fluphenazine dihydrochloride]

Return:
1.01
0.746
0.971
0.84
